# credit: ChEMBL document CHEMBL5537153

Organism: Rattus norvegicus
Test protocol: Selectivity ratio of Ki for SERT in Sprague-Dawley rat brainstem to Ki for DAT in Sprague-Dawley rat striatum
Known Ratio Ki of a selection of compounds
I'd appreciate a reply containing only the number, no unit.

Record C[C@@H](O)CN1CCC(CC[S+]([O-])C(c2ccc(F)cc2)c2ccc(F)cc2)CC1 (some centres undefined) , field Ratio Ki: 126

Further cases:
Record COc1ccc(CC(O)CN2CCCN(CC[S+]([O-])C(c3ccc(F)cc3)c3ccc(F)cc3)CC2)cc1 (centres undefined) , field Ratio Ki: 80

Record OC(Cc1ccccc1)CN1CCCN(CCSC(c2ccc(F)cc2)c2ccc(F)cc2)CC1 (centres undefined) , field Ratio Ki: 40

Record [O-][S+](CCN1CCCN(CC(O)Cc2ccc(F)cc2)CC1)C(c1ccc(F)cc1)c1ccc(F)cc1 (centres undefined) , field Ratio Ki: 316

Record C[C@H](O)CN1CCC(CC[S+]([O-])C(c2ccc(F)cc2)c2ccc(F)cc2)CC1 (some centres undefined) , field Ratio Ki: 37

Record [O-][S+](CCN1CCN(c2ncccn2)CC1)C(c1ccc(F)cc1)c1ccc(F)cc1 (centres undefined) , field Ratio Ki: 2

Record CC(O)CN1CCC(CCSC(c2ccc(F)cc2)c2ccc(F)cc2)CC1 (centres undefined) , field Ratio Ki: 29

Record OC(Cc1ccc(F)cc1)CN1CCCN(CCSC(c2ccc(F)cc2)c2ccc(F)cc2)CC1 (centres undefined) , field Ratio Ki: 35

----------
Species: Rattus norvegicus
Test protocol: Selectivity ratio of Ki for SERT in Sprague-Dawley rat brainstem to Ki for DAT in Sprague-Dawley rat striatum
Known Ratio Ki of a selection of compounds
I'd appreciate a reply containing only the number, no unit.

# count of solved cases: 6
Record Fc1ccc(C(SCCN2CCN(c3ncccn3)CC2)c2ccc(F)cc2)cc1 , field Ratio Ki: 1

Record [O-][S+](CCC1CCN(CC(O)Cc2ccccc2)CC1)C(c1ccc(F)cc1)c1ccc(F)cc1 (configuration not stated) , field Ratio Ki: 310

Record [O-][S+](CCN1CCN(c2ccncc2)CC1)C(c1ccc(F)cc1)c1ccc(F)cc1 (configuration not stated) , field Ratio Ki: 1

Record Fc1ccc(C(SCCN2CCCN(c3ncccn3)CC2)c2ccc(F)cc2)cc1 , field Ratio Ki: 1

Record CC(O)CN1CCCN(CCSC(c2ccc(F)cc2)c2ccc(F)cc2)CC1 (configuration not stated) , field Ratio Ki: 38

Record Fc1ccc(C(SCCN2CCN(c3ccncc3)CC2)c2ccc(F)cc2)cc1 , field Ratio Ki: 1

Consider the additional compound presented here.
Record COc1ccc(N2CCN(CCSC(c3ccc(F)cc3)c3ccc(F)cc3)CC2)cc1 , field Ratio Ki: 1

----------
Tested on: Sodium-dependent serotonin transporter (Rattus norvegicus)
Sequence (P31652 whole entry): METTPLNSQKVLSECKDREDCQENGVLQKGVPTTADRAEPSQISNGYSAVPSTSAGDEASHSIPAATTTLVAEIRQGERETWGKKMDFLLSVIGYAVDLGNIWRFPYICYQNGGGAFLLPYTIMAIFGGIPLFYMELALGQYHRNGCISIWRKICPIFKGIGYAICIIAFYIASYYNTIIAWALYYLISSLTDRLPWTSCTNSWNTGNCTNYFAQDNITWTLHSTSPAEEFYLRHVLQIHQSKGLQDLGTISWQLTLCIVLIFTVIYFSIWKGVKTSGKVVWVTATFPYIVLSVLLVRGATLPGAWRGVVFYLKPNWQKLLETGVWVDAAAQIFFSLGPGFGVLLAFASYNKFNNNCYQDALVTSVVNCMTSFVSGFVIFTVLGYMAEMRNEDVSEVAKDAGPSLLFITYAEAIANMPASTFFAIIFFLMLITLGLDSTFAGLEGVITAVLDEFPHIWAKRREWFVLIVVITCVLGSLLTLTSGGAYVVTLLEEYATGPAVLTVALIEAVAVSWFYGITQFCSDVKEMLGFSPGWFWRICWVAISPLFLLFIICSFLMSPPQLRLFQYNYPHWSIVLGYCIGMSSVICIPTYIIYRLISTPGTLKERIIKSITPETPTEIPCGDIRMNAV
Test protocol: Displacement of [3H]citalopram from SERT in Sprague-Dawley rat brainstem incubated for 60 mins by scintillation counting analysis
Format: tissue-based
Rule: Ki below 800 nM gives true (1), anything at or above gives false (0).

// below: answered compounds
Q: hey, is Ki for [O-][S+](CCN1CCN(c2ccncc2)CC1)C(c1ccc(F)cc1)c1ccc(F)cc1 (centres undefined) lower than 800 nM or not?
A: false (0)

Q: hey, is Ki for Fc1ccc(C(SCCN2CCN(c3ncccn3)CC2)c2ccc(F)cc2)cc1 lower than 800 nM or not?
A: false (0)

Further cases:
Q: hey, is Ki for OC(Cc1ccccc1)CN1CCCN(CCSC(c2ccc(F)cc2)c2ccc(F)cc2)CC1 (centres undefined) lower than 800 nM or not?
A: true (1)

Q: hey, is Ki for COc1ccc(CC(O)CN2CCCN(CCSC(c3ccc(F)cc3)c3ccc(F)cc3)CC2)cc1 (centres undefined) lower than 800 nM or not?
A: true (1)

Q: hey, is Ki for C[C@H](O)CN1CCC(CC[S+]([O-])C(c2ccc(F)cc2)c2ccc(F)cc2)CC1 (some centres undefined) lower than 800 nM or not?
A: false (0)

----------
The compounds below have reported pKi for Sodium-dependent dopamine transporter (Rattus norvegicus).
Answer as the number alone; pKi is minus log10 of concentration in mol/L.

Record COc1ccc(N2CCN(CCSC(c3ccc(F)cc3)c3ccc(F)cc3)CC2)cc1 , field pKi: 6.18

Record CC(F)CN1[C@H](C)CN(CCSC(c2ccc(F)cc2)c2ccc(F)cc2)C[C@@H]1C (stereo not given in full) , field pKi: 6.87

Record CC(F)CN1[C@H](C)CN(CC[S+]([O-])C(c2ccc(F)cc2)c2ccc(F)cc2)C[C@@H]1C (stereo not given in full) , field pKi: 5.98

Record CC(O)CN1CCCN(CC[S+]([O-])C(c2ccc(F)cc2)c2ccc(F)cc2)CC1 (stereo not given) , field pKi: 6.38

Consider the additional compound presented here.
Record COc1ccc(CC(O)CN2CCCN(CC[S+]([O-])C(c3ccc(F)cc3)c3ccc(F)cc3)CC2)cc1 (stereo not given) , field pKi: 7.48

----------
The molecules below have reported pKi for Sodium-dependent dopamine transporter (Rattus norvegicus).
Answer as the number alone; pKi is minus log10 of concentration in mol/L.

Record OC(Cc1ccccc1)CN1CCCN(CCSC(c2ccc(F)cc2)c2ccc(F)cc2)CC1 (stereo unspecified) , field pKi: 8.14

Record COc1ccc(N2CCN(CC[S+]([O-])C(c3ccc(F)cc3)c3ccc(F)cc3)CC2)cc1 (stereo unspecified) , field pKi: 5.20

Record Fc1ccc(C(SCCN2CCN(c3ccncc3)CC2)c2ccc(F)cc2)cc1 , field pKi: 7.04

Record CC(O)CN1CCC(CC[S+]([O-])C(c2ccc(F)cc2)c2ccc(F)cc2)CC1 (stereo unspecified) , field pKi: 6.74

Record C[C@@H](O)CN1CCC(CCSC(c2ccc(F)cc2)c2ccc(F)cc2)CC1 , field pKi: 7.07

Further cases:
Record [O-][S+](CCN1CCCN(c2ncccn2)CC1)C(c1ccc(F)cc1)c1ccc(F)cc1 (stereo unspecified) , field pKi: 4.61

Record OC(Cc1ccc(F)cc1)CN1CCCN(CCSC(c2ccc(F)cc2)c2ccc(F)cc2)CC1 (stereo unspecified) , field pKi: 7.84

Record [O-][S+](CCN1CCN(c2ccncc2)CC1)C(c1ccc(F)cc1)c1ccc(F)cc1 (stereo unspecified) , field pKi: 5.61

Record [O-][S+](CCC1CCN(CC(O)Cc2ccccc2)CC1)C(c1ccc(F)cc1)c1ccc(F)cc1 (stereo unspecified) , field pKi: 8.58

Record COc1ccc(CC(O)CN2CCCN(CCSC(c3ccc(F)cc3)c3ccc(F)cc3)CC2)cc1 (stereo unspecified) , field pKi: 7.78

Record C[C@H](O)CN1CCC(CC[S+]([O-])C(c2ccc(F)cc2)c2ccc(F)cc2)CC1 (stereo partly specified) , field pKi: 6.42

----------
Known pKi of a selection of compounds
Tested on: UniProt Q01959
Test protocol: Displacement of [3H]WIN35428 from wild type human DAT expressed in COS-7 cells incubated for 1.5 hrs by scintillation counting analysis
Format: cell-based
Answer as the number alone; pKi is minus log10 of concentration in mol/L.

# count of solved cases: 5
Record CC(O)CN1CCC(CC[S+]([O-])C(c2ccc(F)cc2)c2ccc(F)cc2)CC1 (stereo unspecified) , field pKi: 6.45

Record Fc1ccc(C(SCCN2CCN(c3ccncc3)CC2)c2ccc(F)cc2)cc1 , field pKi: 6.97

Record [O-][S+](CCN1CCN(CC(O)Cc2ccccc2)CC1)C(c1ccc(F)cc1)c1ccc(F)cc1 (stereo unspecified) , field pKi: 7.97

Record [O-][S+](CCN1CCCN(CC(O)Cc2ccccc2)CC1)C(c1ccc(F)cc1)c1ccc(F)cc1 (stereo unspecified) , field pKi: 7.49

Record CC(O)CN1CCN(CC[S+]([O-])C(c2ccc(F)cc2)c2ccc(F)cc2)CC1 (stereo unspecified) , field pKi: 5.99

Further cases:
Record CC(O)CN1CCCN(CCSC(c2ccc(F)cc2)c2ccc(F)cc2)CC1 (stereo unspecified) , field pKi: 7.10

----------
Tested on: Sodium-dependent dopamine transporter (Homo sapiens)
Sequence (Q01959 whole entry): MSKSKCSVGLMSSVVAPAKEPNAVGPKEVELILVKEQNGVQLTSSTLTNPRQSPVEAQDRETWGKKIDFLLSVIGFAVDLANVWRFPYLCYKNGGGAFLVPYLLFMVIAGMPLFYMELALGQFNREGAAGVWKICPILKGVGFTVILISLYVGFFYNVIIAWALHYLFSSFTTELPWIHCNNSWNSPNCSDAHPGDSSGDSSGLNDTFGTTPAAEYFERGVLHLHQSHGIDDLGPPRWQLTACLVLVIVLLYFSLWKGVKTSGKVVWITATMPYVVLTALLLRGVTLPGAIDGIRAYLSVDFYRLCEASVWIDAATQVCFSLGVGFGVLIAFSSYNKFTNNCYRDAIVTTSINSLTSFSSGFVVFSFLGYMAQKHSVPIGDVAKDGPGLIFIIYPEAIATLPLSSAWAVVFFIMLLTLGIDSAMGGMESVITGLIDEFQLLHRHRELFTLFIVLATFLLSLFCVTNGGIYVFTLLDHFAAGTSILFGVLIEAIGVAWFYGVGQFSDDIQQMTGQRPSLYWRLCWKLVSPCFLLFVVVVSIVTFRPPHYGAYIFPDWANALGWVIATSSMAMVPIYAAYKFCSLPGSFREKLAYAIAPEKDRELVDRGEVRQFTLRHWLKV
Test protocol: Inhibition of [3H]dopamine uptake from wild type human DAT expressed in COS-7 cells preincubated for 30 mins followed by [3H]dopamine addition and measured after 5 mins by beta scintillation counting analysis
Format: cell-based
Known pKi of a selection of compounds
Answer as the number alone; pKi is minus log10 of concentration in mol/L.

# count of solved cases: 3
Record Fc1ccc(C(SCCN2CCN(c3ccncc3)CC2)c2ccc(F)cc2)cc1 , field pKi: 6.49

Record CC(O)CN1CCC(CC[S+]([O-])C(c2ccc(F)cc2)c2ccc(F)cc2)CC1 (stereo unspecified) , field pKi: 6.02

Record CC(O)CN1CCCN(CCSC(c2ccc(F)cc2)c2ccc(F)cc2)CC1 (stereo unspecified) , field pKi: 6.79

Further cases:
Record [O-][S+](CCN1CCN(CC(O)Cc2ccccc2)CC1)C(c1ccc(F)cc1)c1ccc(F)cc1 (stereo unspecified) , field pKi: 9.09

Record CC(O)CN1CCN(CC[S+]([O-])C(c2ccc(F)cc2)c2ccc(F)cc2)CC1 (stereo unspecified) , field pKi: 6.04

Record [O-][S+](CCN1CCCN(CC(O)Cc2ccccc2)CC1)C(c1ccc(F)cc1)c1ccc(F)cc1 (stereo unspecified) , field pKi: 7.40
